Molecular target: UniProtKB P55789
Sequence (P55789 whole entry): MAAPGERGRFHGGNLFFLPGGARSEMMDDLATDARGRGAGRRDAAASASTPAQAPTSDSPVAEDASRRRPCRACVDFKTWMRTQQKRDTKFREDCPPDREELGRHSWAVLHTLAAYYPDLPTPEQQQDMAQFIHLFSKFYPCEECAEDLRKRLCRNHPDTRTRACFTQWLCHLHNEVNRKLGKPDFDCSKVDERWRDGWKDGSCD
Test: ALR-catalysed DTT oxidation blockers – biochemical, H2O2 detection, luminescence, cherry-pick, dose response (AID 493248)
Calls of active or inactive are those of the source.
Each item that follows carries a reported AC50.

compound=Cc1ccc(-c2nnc(S)n2/N=C/c2c(C)nn(-c3ccccc3)c2O)cc1 result="13.5 µM (active)"
compound=CC[C@@H](C)[C@H](NC(=O)Cc1c(C)c2cc3c(C)coc3c(C)c2oc1=O)C(=O)O result="2.39 µM (active)"

Shift focus to the following entry.
Q: Supply reported AC50 belonging to this compound: N=c1sccn1CC(=O)Nc1ccc(SC(F)F)cc1
Ans: 1.68 µM (active)

###

Target: Caspase-6 (Homo sapiens)
Test: inhibition of CASP6 peptide cleavage – biochemical, VEID-R110 fluorescence, cherry-pick, dose response (AID 720632)
Activity calls are given as the source filed them.
Measurement Label: AC50

# example entries with known answers
compound=O=C(Nc1ccc(S(=O)(=O)Nc2cnc3ccccc3n2)cc1)c1ccc(Cl)c([N+](=O)[O-])c1 result="0.905 µM (active)"
compound=COc1cc2c(cc1OC)-c1c(OC)c(OC)cc3c1[C@H](C2)N(C)CC3 result="0.926 µM (active)"
compound="CC1=CCC(C(=O)O)C(C(=O)NC2CCCCC2)C1 (centres undefined)" result="10.2 µM (active)"

Shift focus to the following entry.
Q: Supply reported AC50 belonging to this compound: O=C(O)c1ccc2c3c(cccc13)C(=O)N(c1ccccc1)C2=O
Ans: 11.9 µM (active)

###

Test: Luminescence Cell-Based Dose Response HTS to Identify Inhibitors of 5'UTR Stem-Loop Driven Prion Protein mRNA Translation in H4 Neuroglioblastoma Cells. [Related pubchem assays: 1827 (Project Summary), 1813 (Primary HTS)]
Assay type: functional
Active and inactive are the calls of the source.
Measurement Label: EC50

# example entries with known answers
compound=COc1cc(/C=N/NC(=O)c2cc(-c3ccccc3OC(C)C)nc3ccccc23)ccc1O result="> 120 µM (not active)"
compound="O=C(Nc1ccc([N+](=O)[O-])cc1)C(Cc1ccccc1)N1C(=O)c2cccc3cccc(c23)C1=O (stereo not given)" result="> 120 µM (not active)"

Q: Supply reported EC50 belonging to this compound: Cn1c(=N)n(CC(=O)c2ccccc2)c2ccccc21
Ans: 8.25 µM (inconclusive)

Q: Supply reported EC50 belonging to this compound: O=C(c1cc2nc(-c3ccccc3)cc(-c3ccccc3)n2n1)N1CCC2(CC1)OCCO2
Ans: 12.9 µM (active)

###

Each item that follows carries a reported EC50.
Molecular target: Trace amine-associated receptor 1 (Homo sapiens, UniProt Q96RJ0)
Sequence (Q96RJ0 whole entry): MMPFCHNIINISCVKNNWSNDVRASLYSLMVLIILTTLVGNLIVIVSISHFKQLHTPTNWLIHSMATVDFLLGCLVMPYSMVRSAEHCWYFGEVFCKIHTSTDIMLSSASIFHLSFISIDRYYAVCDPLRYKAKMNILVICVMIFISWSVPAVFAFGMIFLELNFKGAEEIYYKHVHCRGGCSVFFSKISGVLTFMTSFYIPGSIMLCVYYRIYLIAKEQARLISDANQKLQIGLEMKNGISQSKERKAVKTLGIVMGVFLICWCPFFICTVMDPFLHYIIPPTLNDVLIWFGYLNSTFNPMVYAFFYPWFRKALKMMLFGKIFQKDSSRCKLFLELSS
Assay: Fluorescence-based cell-based high throughput dose response assay to identify agonists of the human trace amine associated receptor 1 (TAAR1).
Format: functional
Active and inactive are the calls of the source.

# example entries with known answers
record_smiles=Cc1cc(C)c2cc(C#N)c(N3CCNCC3)nc2c1 measurement_label=EC50 result="1550 nM (active)"
record_smiles=O=C(c1nc(C(F)(F)F)[nH]c1-c1ccccc1)N1CCc2ccccc2C1 measurement_label=EC50 result="2770 nM (active)"
record_smiles=Cc1cc(-c2csc(N)n2)c(C)n1CCc1ccccc1 measurement_label=EC50 result="449 nM (active)"
record_smiles=CC(C)[C@H](NC(=O)c1ccc(Cl)c(Cl)c1)C(=O)N1CCC[C@H]1C(=O)NCCc1ccccc1Cl measurement_label=EC50 result="1450 nM (active)"

Shift focus to the following entry.
Q: Supply reported EC50 belonging to this molecule: COc1ccc(NS(=O)(=O)c2ccc(NC(=S)NC(=O)C(C)C)cc2)cc1
Ans: 1990 nM (active)

The measured values listed here are drawn from ChEMBL document CHEMBL1201862.
